tested system: human D2R/β-arrestin (Homo sapiens (Human))
Sequence (P14416 whole entry): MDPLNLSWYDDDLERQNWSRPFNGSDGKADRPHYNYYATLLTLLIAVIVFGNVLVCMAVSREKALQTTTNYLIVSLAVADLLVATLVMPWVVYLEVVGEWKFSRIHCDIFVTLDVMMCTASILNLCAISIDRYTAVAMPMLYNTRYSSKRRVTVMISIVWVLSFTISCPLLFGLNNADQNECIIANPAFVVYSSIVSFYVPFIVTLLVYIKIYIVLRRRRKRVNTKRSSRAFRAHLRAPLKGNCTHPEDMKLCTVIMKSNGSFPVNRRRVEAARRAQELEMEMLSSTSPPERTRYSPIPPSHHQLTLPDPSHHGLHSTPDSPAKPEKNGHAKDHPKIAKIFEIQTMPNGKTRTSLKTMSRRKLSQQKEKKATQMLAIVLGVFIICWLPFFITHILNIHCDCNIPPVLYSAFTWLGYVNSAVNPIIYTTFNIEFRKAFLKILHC
test: cell-based
experimental parameters: cAMP Antagonist, CHO-K1 cells expressing human D2R/β-arrestin; antagonist mode, 2.5 μM forskolin and 2.7 nM quinpirole
measured quantity: IC50

• CC(C)C1(O)CCN(CCOc2ccccc2C(F)(F)F)CC1 = < 0.1 µM
• CC1(Oc2ccc(Cl)cc2)CCN(CCOc2ccc3cnccc3c2)C1 (stereo not drawn) = 0.1 to 1 µM
• FC(F)(F)c1ccccc1OCCN1CCC2(CC1)CC2c1ccc(Cl)cc1 (single isomer, unassigned) [Compound 216b] = > 30 µM
• CC1(C(=O)NC2CC2)CCN(CC2COc3ccccc3O2)CC1 (single isomer, unassigned) [Compound 203b] = 10 to 30 µM
• CC1(Oc2ccc(Cl)cc2)CCN(CCOc2ccc(Cl)cc2)C1 (stereo not drawn) = 1 to 10 µM
• CN(C)c1ccccc1OCCN1CCC(C)(Oc2ccccc2)CC1 = 0.1 to 1 µM

Problem: Answer with the recorded IC50 for the molecule listed here: CC1(Oc2ccccc2)CCN(CCOc2ccncc2)CC1
Solution: > 30 µM

Problem: Answer with the recorded IC50 for the molecule listed here: CC1(Oc2cccc(Cl)c2Cl)CCN(CCOc2ccccc2)C1 (stereo not drawn)
Solution: > 30 µM

Problem: Answer with the recorded IC50 for the molecule listed here: CC1(Oc2ccc(Cl)cc2)CCN(CCOc2ccc3cccnc3c2)C1 (stereo not drawn)
Solution: > 30 µM
